Data origin, for the record: patent US20070015723A1

The substances listed here are annotated with their pEC50.
Test system: HSV-1 (KOS)
experimental_protocol: HSV-1 infection ELISA assay
Type: cell-based
measurement_conditions: 50% inhibition of HSV replication relative to control infected cells; Table 1
pEC50: −log10 of the molar value.

substance: ISIS 4672: GGG T GGG T ATA G, P = S, SEQ ID NO 50 (GGGTGGGTATAG; all phosphorothioate, sugars by position not given here)
limit_operator: =
pEC50: 6.70

substance: ISIS 4692: T GGG T ATA G AAG GGC TCC, P = S, SEQ ID NO 51 (TGGGTATAGAAGGGCTCC; all phosphorothioate, sugars by position and methylation of C not given here)
limit_operator: =
pEC50: 5.82

substance: ISIS 5677: GGGG TT GGGG TT GGGG TT GGGG, P = S, SEQ ID NO 36 (GGGGTTGGGGTTGGGGTTGGGG; all phosphorothioate, sugars by position not given here)
limit_operator: =
pEC50: 6.70

substance: ISIS 4694: TA G AAG GGC TCC, P = S, SEQ ID NO 53 (TAGAAGGGCTCC; all phosphorothioate, sugars by position and methylation of C not given here)
limit_operator: <
pEC50: 5.52

substance: ISIS 5366: TTGGGGTTGGGGTTGGGGTTG GGGG, P = S, SEQ ID NO 33 (TTGGGGTTGGGGTTGGGGTTGGGGG; all phosphorothioate, sugars by position not given here)
limit_operator: =
pEC50: 6.80
